experimentNotes: xn = mol fraction of the nth substance listed, in the solute-free solvent
conditionSummary: 323.15 K; x2 = 0.5
Task for the reader: assign each of the following compounds its reported solubility (g/100 g solution).

## Input Give its solubility (g/100 g solution) value. Item: Cc1c(Br)c(=O)n(C2CCCC2)c2nc(Cl)ncc12 + CCOC(C)=O + CCO
## Output 1.45

## Input Give its solubility (g/100 g solution) value. Item: CCOc1ccccc1C(N)=O + CO + CC#N
## Output 28.3

## Input Give its solubility (g/100 g solution) value. Item: Cl.NC(Cc1ccccc1)C(=O)OCc1ccccc1 (stereo not drawn) + CO + CC(C)=O
## Output 8.44
